These entries and their values trace back to patent US20200062856A1.

Below, each of the binders is paired with its reported koff value.
- TESTED SYSTEM: T1, human TPBG antigen immobilized on a CM5 chip (human, UniProt Q13641 32-355, limits assumed)
- T1 sequence (looked up): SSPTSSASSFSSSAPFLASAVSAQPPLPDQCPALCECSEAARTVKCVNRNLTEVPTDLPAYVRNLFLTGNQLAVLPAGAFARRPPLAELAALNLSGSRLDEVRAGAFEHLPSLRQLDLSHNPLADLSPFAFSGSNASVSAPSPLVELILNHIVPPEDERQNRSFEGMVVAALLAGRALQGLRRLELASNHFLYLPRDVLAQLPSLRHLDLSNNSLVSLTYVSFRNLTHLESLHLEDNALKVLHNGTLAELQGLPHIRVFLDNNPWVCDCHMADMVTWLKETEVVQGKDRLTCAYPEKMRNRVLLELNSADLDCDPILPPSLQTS
- EXPERIMENT SUMMARY: SPR (Biacore), human TPBG antigen immobilized on CM5 chip
Note: unit s⁻¹ is implicit; provide only the numeric part.

See these solved cases before continuing.
- BINDER: "Chimeric antibody 12B12 (antibody, V domains shown, Mouse variable domains on human IgG1 heavy and human kappa light constant regions; also called c12B12; TPBG chimeric antibody 12B12) VH: DVQLVESGGGLVQPGGSRKLSCAASGFTFSNFGMHWVRQAPEKGLEWVAYISSGSTSFYYADTVKGRFTISRDNPKNTLFLQMTSLRSEDTAMYYCSRTNSLLRGFFDAWGAGTTVTVSS VL: DIVLTQSPASLAVSLGQRATISCRASQSVSSSSYTYLHWYQQKPGQPPKLLIKSASNLESGVPARFSGTGSGTDFTLNIHPVEEEDTATYYCQHSWEIPLTFGAGTKLELK"
  koff, s⁻¹: "1.64e-05"
- BINDER: "Humanized antibody 12B12-16 (antibody, V domains shown, also called h12B12-16) VH: EVQLVESGGGVVQPGRSLRLSCAASGFTFSNFGMHWVRQAPGKGLEWVAYISSGSTSFYYADTVKGRFTISRDNSKNTLYLQMNSLRAEDTAVYYCSRTNSLLRGFFDAWGQGTTVTVSS VL: DIVLTQTPLSLSVTPGQPASISCRASQSVSSSSYTYLHWYLQKPGQPPQLLIKSASNLESGVPDRFSGSGSGTDFTLKISRVEAEDVGVYYCQHSWEIPLTFGQGTKLEIK"
  koff, s⁻¹: "3.65e-05"

Per the record, Humanized antibody 28D4-3 (antibody, V domains shown, also called h28D4-3) VH: EVQLVESGGGLVKPGGSLRLSCAASGFTFSNYVMSWIRQAPGKGLEWVAEISTGGSHTYYSDTVTGRFTISRDNAKKSLYLQMNSLRAEDTAVYYCIMFYYGSSYSMDYWGQGTTVTVSS VL: DIQMTQSPSSLSASVGDRVTITCRASQDIRNYLNWYQQKPGKAPKLLIYHTSRLHSGVPSRFSGSGSGTDFTFTISSLQPEDIATYYCQQGDTLPLTFGQGTRLEIK has koff of 4.57e-05
